molecular target: T1, human CLDN18.2 (human); experiment: flow cytometry, phage supernatant; hCLDN18.2 cells against hCLDN18.1 cells
T1 construct: also called hCLDN18.2; huCLDN18.2
MEASURED PROPERTY: ratio of mean fluorescence intensities on hCLDN18.2 and hCLDN18.1 cells
Answer with a number only.

Some solved cases for reference:
BINDER	QUANTITATIVE RESULT
A18-1-64 (VHH) VHH: QVQLVESGGGLVQPGGSLRLSCAASGNIFRIDTMGWYRQAPGKQREFVAGISRGGSTNYAHSVKERFTISRDNAKNTMYLQMNSLKSEDTAGYYCNAQAWDPGTIRYLEVWGQGTLVTVSS	116
A18-1-45 (VHH) VHH: EVQLQESGGGLVQPGGSLRLSCAASGIIFNIPVMSWYRQAPGKQRELVAGISTGGTTNYGDSVKGRFTISRDNAKNTVYLQMNSLKPEDTAVYYCNVLVVSGIGSHLEVWG	78

Report ratio of mean fluorescence intensities on hCLDN18.2 and hCLDN18.1 cells, nothing else, for this binder: A18-1-70 (VHH) VHH: QVQLVESGGGLVQPGGSLRLSCAASGNIFRIDTMGWYRQAPGKQRELVAGISRGGTTTYAHSVKERFTISRDNAKNTMYLQMNSLKSEDTAGYYCNAQAWDPGTFRYLEVWGQGTLVTVSA 65
